Provenance of the data: PubChem BioAssay AID1259407

Tested on: CCRIS mutagenicity, Ames/micronucleus/aberration tests
experiment: CCRIS mutagenicity studies
condition-parameters: Test System: CHINESE HAMSTER V-79; Strain/Indicator: V-79/6-THIOGUANINE; Metabolic Activation: NONE; Method: STANDARD PLATE
Calls of active or inactive are those of the source. How the calls were made is not given here.
Classes used: 1 (yes) (active), 0 (no) (inactive)

{"compound": "Oc1ccc(Cl)cc1Cl", "test-target": "CCRIS mutagenicity, Ames/micronucleus/aberration tests", "label-class": "0 (no)"}
{"compound": "CC(C)=CC1C(C(=O)OCc2coc(Cc3ccccc3)c2)C1(C)C (centres undefined)", "test-target": "CCRIS mutagenicity, Ames/micronucleus/aberration tests", "label-class": "0 (no)"}
{"compound": "c1ccc2c(c1)cc1c3c2ccc2cccc(c23)C2OC12 (centres undefined)", "test-target": "CCRIS mutagenicity, Ames/micronucleus/aberration tests", "label-class": "1 (yes)"}
{"compound": "Oc1cc(Cl)cc(Cl)c1O", "test-target": "CCRIS mutagenicity, Ames/micronucleus/aberration tests", "label-class": "0 (no)"}
{"compound": "NC(=O)N(CCCl)N=O", "test-target": "CCRIS mutagenicity, Ames/micronucleus/aberration tests", "label-class": "1 (yes)"}
{"compound": "CN(C)N=O", "test-target": "CCRIS mutagenicity, Ames/micronucleus/aberration tests", "label-class": "0 (no)"}
{"compound": "CCOS(C)(=O)=O", "test-target": "CCRIS mutagenicity, Ames/micronucleus/aberration tests", "label-class": "1 (yes)"}
{"compound": "O=NN(CCCl)C(=O)NC1CCCCC1", "test-target": "CCRIS mutagenicity, Ames/micronucleus/aberration tests", "label-class": "1 (yes)"}
{"compound": "O=C[C@H](NC(=O)N(CCCl)N=O)[C@@H](O)[C@H](O)[C@H](O)CO", "test-target": "CCRIS mutagenicity, Ames/micronucleus/aberration tests", "label-class": "1 (yes)"}
